read-out: Monocyte Chemoattractant Protein-1 (MCP1), CCL2 (gene 6347); assay: BSK_3C_MCP1: BioMAP Diversity Plus: 3C Assay for Monocyte Chemoattractant Protein-1 (MCP1) Biomarker Activity (AID 2283017); conditions: primary human endothelial cells (HUVEC); actives raise or lower the signal
Calls of active or inactive are those of the source. The calls were made as follows: active = hit-call score of the fitted dose curve at least 0.9, where 1 is the maximum; inactive = score below 0.9.
Outcomes: y = active, n = inactive

- Smiles notation: "CN(Cc1cnc2nc(N)nc(N)c2n1)c1ccc(C(=O)N[C@@H](CCC(=O)O)C(=O)O)cc1"
  Answer label: "n"
- Smiles notation: "C=CC(=C)CC/C=C(\\C)CCC=C(C)C"
  Answer label: "n"
- Smiles notation: "CS(=O)(=O)c1ccc([C@@H](CC2CCCC2)C(=O)Nc2cnccn2)cc1Cl"
  Answer label: "n"
- Smiles notation: "OCC(CO)(CBr)CBr"
  Answer label: "n"
- Smiles notation: "O=P(O)(O)CCC(F)(F)C(F)(F)C(F)(F)C(F)(F)C(F)(F)C(F)(F)C(F)(F)C(F)(F)F"
  Answer label: "n"
- Smiles notation: "O=C(NO)c1ccccc1"
  Answer label: "n"
- Smiles notation: "C[C@]12CC[C@@H]3c4ccc(O)cc4CC[C@H]3[C@@H]1C[C@@H](O)[C@@H]2O"
  Answer label: "n"
- Smiles notation: "Cc1[nH]nc2c1N=C(c1ccccc1Cl)c1cc([N+](=O)[O-])ccc1N2"
  Answer label: "n"
- Smiles notation: "CCCCc1oc2ccccc2c1C(=O)c1cc(I)c(OCCN(CC)CC)c(I)c1"
  Answer label: "y"
- Smiles notation: "CCCCCCCCCCCCCCCCCC[N+](C)(C)Cc1ccccc1"
  Answer label: "y"
- Smiles notation: "O=C1OC2(c3ccccc31)c1cc(I)c(O)c(I)c1Oc1c2cc(I)c(O)c1I"
  Answer label: "y"

====

assay: ATG_M_61_CIS: Attagene CIS-FACTORIAL HepG2 Assay for M61 Transcription Factor (Internal Marker) (AID 2282937); conditions: HepG2 Attagene CIS-FACTORIAL M61 internal marker reporter; actives raise or lower the signal
Calls of active or inactive are those of the source. How the source made its calls: active means hit-call score of the fitted dose curve at least 0.9, where 1 is the maximum; inactive means score below 0.9.
Outcomes: active, inactive

- Compound: "O=C1c2ccccc2C(=O)c2c(O)c(O)cc(O)c21"
  Answer label: "inactive"
- Compound: "CCOC(OCC)C(=O)c1ccccc1"
  Answer label: "inactive"
- Compound: "O=C(F)C(F)(F)C(F)(F)C(F)(F)C(F)F"
  Answer label: "inactive"
- Compound: "CC(C)(C)c1ccc(O)c(O)c1"
  Answer label: "inactive"
- Compound: "C=CCOCC(CO)(CO)CO"
  Answer label: "inactive"
- Compound: "CCCCCCCC(OC)OC"
  Answer label: "inactive"
- Compound: "CCN(CC)CC"
  Answer label: "inactive"
- Compound: "C=CC(=C)CC/C=C(\\C)CCC=C(C)C"
  Answer label: "inactive"
- Compound: "C=COC(=O)C(C)(C)CCCCCC"
  Answer label: "inactive"
- Compound: "CCCCCCCCCCCCCCCCCC[N+](C)(C)Cc1ccccc1"
  Answer label: "inactive"
- Compound: "C=CC(=O)OCCN(CC)CC"
  Answer label: "inactive"
- Compound: "O=c1cc(-c2ccccc2)oc2ccc3ccccc3c12"
  Answer label: "inactive"
- Compound: "CC1=NN(c2ccccc2)C(=O)C1"
  Answer label: "inactive"
- Compound: "CCCCc1oc2ccccc2c1C(=O)c1cc(I)c(OCCN(CC)CC)c(I)c1"
  Answer label: "active"
- Compound: "O=P(O)(O)CCC(F)(F)C(F)(F)C(F)(F)C(F)(F)C(F)(F)C(F)(F)C(F)(F)C(F)(F)F"
  Answer label: "inactive"
- Compound: "O=C(O)CCC(F)(F)C(F)(F)C(F)(F)C(F)(F)C(F)(F)F"
  Answer label: "inactive"
- Compound: "CCCCCCCCCCCC[N+](C)(C)CCCCCCCCCCCC"
  Answer label: "inactive"
- Compound: "CCCCCCCCCCCC(=O)NCCCN(C)C"
  Answer label: "inactive"
- Compound: "CCCCCCC(C)(C)C(=O)O"
  Answer label: "inactive"
- Compound: "CC(O)COc1ccccc1 (stereo not drawn)"
  Answer label: "inactive"
- Compound: "Cc1[nH]nc2c1N=C(c1ccccc1Cl)c1cc([N+](=O)[O-])ccc1N2"
  Answer label: "inactive"
- Compound: "O=S(=O)(O)c1ccccc1"
  Answer label: "inactive"
- Compound: "CCCCCC(C)OC(=O)COc1ccc(Cl)c2cccnc12 (stereo not drawn)"
  Answer label: "inactive"
- Compound: "NCCN"
  Answer label: "inactive"
- Compound: "c1cc2cccc3c4cccc5cccc(c(c1)c23)c54"
  Answer label: "inactive"
- Compound: "c1cnc2c(c1)ccc1cccnc12"
  Answer label: "inactive"
- Compound: "CCCCC(CC)C(=O)OCCOCCOCCOCCOC(=O)C(CC)CCCC (stereo not drawn)"
  Answer label: "inactive"
- Compound: "NC(=NCCCCCCN=C(N)/N=C(\\N)Nc1ccc(Cl)cc1)/N=C(\\N)Nc1ccc(Cl)cc1"
  Answer label: "inactive"
